Below: a set of entries, each annotated with reported SPOT peptide array binding signal intensity.
- STUDY SYSTEM: SpBzz1-D2
- ASSAY NAME: SPOT peptide array binding signal intensity (averaged, normalized) (arbitrary units (background-subtracted, floor 0; scale differs between SH3 domains)); higher = stronger binding of the SH3 domain to the peptide
Field format: numeric only.

// below: answered binders
PSPSSSPPPIPKTAN | 0.5
QGYPRQPQRPQRYHP | 0.5
HRRRRVFSIPSLKSI | 0.5
APKREAPKPPANTSP | 0.25

**Q:** Recall and state the measured SPOT peptide array binding signal intensity for RTIRKLPLMSLSEYF .
**A:** 1
